Recorded values, source a melting point compilation (Tetko et al.; mined from patent text by program, amines drawn as free bases though some values may be those of a salt).

readout.type: melting point

- molecule: "Cc1sc2ncc(C(O)CCc3ccccc3)n2c1C (centres undefined)"
  result: "153 to 154 °C"
- molecule: "CCOC(=O)c1c(C)cc2nc(COC(=O)NCCO)n(-c3ccccc3S(=O)(=O)NC)c(=O)c2c1C"
  result: "122 to 125 °C"
- molecule: "CC(C)(C)C(=O)c1oc(N)nc1C(C)(C)C"
  result: "248 to 250 °C"
- molecule: "COC(=O)c1cncn1C(c1ccccc1)c1ccccc1"
  result: "129 °C"
- molecule: "Cc1cc(C(C)(C)C)c(O)c(C)c1COC(=O)c1cccc(C(=O)OCc2c(C)cc(C(C)(C)C)c(O)c2C)c1"
  result: "155 to 156 °C"

Fill in the blank: the reported melting point of CC1(Cl)C(=O)N(c2cc(Cl)cc(Cl)c2)N=C1Cl (centres undefined) is ____.
77 °C

Next molecule up: CCCn1cc2c(C3C(=O)Nc4ccc(Br)cc43)nc(NC3CCNC3)nc2n1 (centres undefined)
315 to 320 °C

Next molecule up: CC(c1oc2ccc(F)cc2c(=O)c1-c1cccc(F)c1)n1nc(-c2cccc(O)c2)c2c(N)ncnc21 (centres undefined)
193 to 196 °C

Next molecule up: "COc1ccc(S(=O)(=O)Nc2ccccc2O)cc1"
89 °C

Next molecule up: "Cc1ccc(C)c(OCCCC(C)(C)C(=O)Nc2ccc(F)cc2F)c1"
79 to 80 °C

###

readout.type: melting point

- compound: "COc1ccc(C(=O)/C=C/N(C)C)cc1COC(=O)C(C)(C)C"
  melting point: "82 to 84 °C"
- compound: "O=C(CCl)Nc1ccc(-c2nc3ccccc3s2)cc1I"
  melting point: "192 to 194 °C"
- compound: "COC(=O)c1ccc(C(=O)Nc2ccc(C)c(Nc3nc(-c4cccnc4)cs3)c2)cc1"
  melting point: "195 °C"
- compound: "CN1C(=O)CCC2(C)c3ccc(SCc4cc5ccccc5cn4)cc3CCC12 (single isomer, unassigned; (+))"
  melting point: "129 to 130 °C"
- compound: "O=C1CCCN1c1cccc(-c2ccnc3c([N+](=O)[O-])cnn23)c1"
  melting point: "226 to 228 °C"

Fill in the blank: the reported melting point of "CS(=O)(=O)N1CCN([C@@H](CNC(=O)c2ccc(OCc3ccc(F)cc3)cc2)C(=O)NO)CC1" is ____.
194 °C

Next compound up: "COC(=O)c1csc2c(=O)cc(C(F)(F)F)oc12"
148 to 158 °C

Next compound up: "CNc1c(NCCSCc2ccc(CN(C)C)o2)c(=O)c1=O"
176 to 178 °C

Next compound up: CC1OC(Sc2ccccc2)C(OCc2ccccc2)C(OC(=O)c2ccccc2)C1OC(=O)c1ccccc1 (stereo not given)
98 to 100 °C

Next compound up: CCCCCCCCC(SCCCCCC)C(=O)Nc1c(SC)cc(C)nc1SC (stereo not given)
75 to 76.5 °C

Next compound up: "CC(=O)Nc1cccc2c1C(=O)c1c-2n[nH]c1-c1ccc(C(F)(F)F)cc1"
> 300 °C

Next compound up: "CC(C)(C)c1ccc(OCCCCCN2CCN(c3nccs3)CC2)cc1"
71 to 73 °C

Next compound up: "CCCn1cc(-c2c(-c3ccc(F)cc3)nn3ccncc23)ccc1=O"
183 to 184 °C

Next compound up: Cc1cc(C)n(C(=O)C(C)NS(=O)(=O)c2ccc(Cl)cc2)n1 (stereo not given)
150 °C

Next compound up: "Cc1scc(C2=NOCCO2)c1S(=O)(=O)NC(=O)n1nc(OC(C)C)n(C)c1=O"
199 °C

###

readout.type: melting point

Consider the worked cases shown below.
- compound: "COc1ccc(C(O)C=Cc2ccc(N(C)C)cc2)cc1 (stereo unspecified)"
  melting point: "137 to 148 °C"
- compound: "O=Cc1c2n(c3ccccc13)CCNCC2"
  melting point: "167 to 168 °C"
- compound: "CCCCCCCCNC(=O)C1=C(C(=O)Nc2cc(OC3CCCC3)c(Cl)cc2F)CCCC1"
  melting point: "127 to 130 °C"
- compound: "O=C(O)c1ccc(OCCNC(=O)C2Cc3ccccc3N2S(=O)(=O)c2ccc(-c3ccc(F)cc3)cc2)cc1 (stereo unspecified)"
  melting point: "108 °C"

Fill in the blank: the reported melting point of CCCCCCCCCCCCCC(=O)Nc1ccc(Cl)c(NC2=NN(c3c(Cl)cc(Cl)cc3Cl)C(=O)C2n2ccnc2)c1 (stereo unspecified) is ____.
172 to 174 °C

Next compound up: COC12CC(C(C)COC(=O)c3[nH]c(C)cc3C)CN(C)C1Cc1cn(C)c3cccc2c13 (stereo unspecified)
128 to 130 °C

###

Below, each entry is listed alongside its reported melting point.

Consider the worked cases shown below.
- compound: "Fc1ccccc1Cn1cnc2c(NC3CC3)nc(C(F)(F)F)nc21"
  readout.type: "melting point"
  result: "118 to 119 °C"
- compound: "CCCCCCCCCCCCCCCCCNC(=O)N(C)CC(O)C(O)C(O)C(O)CO (centres undefined)"
  readout.type: "melting point"
  result: "94 to 96 °C"
- compound: "CC(C)(C)OC(=O)NCC(=O)Nc1cccc(NC(=N)N2CCCC2)c1"
  readout.type: "melting point"
  result: "182 to 183 °C"
- compound: "O=C(Nc1cc(S(=O)(=O)NCCO)sc1Cl)c1cnn2c(C(F)F)cc(-c3ccc(C(F)(F)F)cc3)nc12"
  readout.type: "melting point"
  result: "209 °C"
- compound: "C=C(OCC1(N2CCN(C(=O)OC(C)(C)C)CC2)Cc2ccccc2C1)c1cc(C)cc(C)c1"
  readout.type: "melting point"
  result: "128 °C"
- compound: "CCOCc1nc2c(N)nc3cc(Br)ccc3c2s1"
  readout.type: "melting point"
  result: "201 to 204 °C"
- compound: "CCCOc1ccccc1-c1ccc(C(=O)O)c(=O)[nH]1"
  readout.type: "melting point"
  result: "194 to 196 °C"
- compound: "CCOC(=O)n1nc(Oc2c(F)cc(C(F)(F)F)cc2Cl)cc1C"
  readout.type: "melting point"
  result: "127 to 129 °C"

Moving on to the next compound.
Fill in the blank: the reported melting point of "Cc1ccc(-n2nc(C(=O)CCCO[N+](=O)[O-])cc2-c2ccc(S(C)(=O)=O)cc2)cc1" is ____.
107 to 109 °C

###

Below, each entry is listed alongside its reported melting point.

Consider the worked cases shown below.
- compound: "CCC(=O)N1N=C(c2ccc([N+](=O)[O-])cc2)c2cc(Br)ccc2CC1C (stereo not given)"
  readout.type: "melting point"
  result: "178 to 180 °C"
- compound: "OC1CN2[C@H]3CC[C@@H]2[C@@H]1[C@@H](c1ccc(Cl)c(Cl)c1)C3 (stereo not given in full)"
  readout.type: "melting point"
  result: "156 to 158 °C"
- compound: "CC(C)(C)c1cc(C=C2NC(=O)NC2=O)cc(C(C)(C)C)c1O"
  readout.type: "melting point"
  result: "251 to 252 °C"
- compound: "COc1cc(Nc2c(C#N)cnc3cc(C#CCCN4CCOCC4)c(OC)cc23)c(Cl)cc1Cl"
  readout.type: "melting point"
  result: "140 to 142 °C"

Fill in the blank: the reported melting point of "COc1ccc(Cn2c(=O)n(C3CCCCC3)c3cc(Cl)ccc32)c(OC)c1" is ____.
112 °C

###

readout.type: melting point

- compound: "N#Cc1cc2c(s1)CCCC2NC=O (stereo unspecified)"
  readout.type: "melting point"
  result: "131 to 134 °C"
- compound: "COc1cc(C(=O)c2ccccc2F)cc([N+](=O)[O-])c1O"
  readout.type: "melting point"
  result: "127 to 129 °C"
- compound: "COC(=O)c1cccc(SCc2c(O[C@H](Cn3ccnc3)c3ccccc3)ccc3c2CCCC3=O)c1"
  readout.type: "melting point"
  result: "65 °C"
- compound: "Cc1ccc(NS(=O)(=O)c2cc(S(=O)(=O)Nc3ccc(C)cc3C)c3cc(O)ccc3c2)c(C)c1"
  readout.type: "melting point"
  result: "116 to 118 °C"
- compound: "CCOC(=O)c1nc(NC(C)=O)sc1Cc1ccc(SC)cc1"
  readout.type: "melting point"
  result: "205 to 206 °C"

Fill in the blank: the reported melting point of "CCOc1cc(OCC)c2c(=O)c(OCC)c(-c3ccccc3)oc2c1" is ____.
111 to 114 °C

Next compound up: "COc1ccc(-c2[nH]c3ccccc3c(=O)c2C(=O)O)cc1"
> 300 °C

Next compound up: "N#Cc1cc(-c2c3ccccc3cc3sc4ccccc4c23)ccc1O"
231 to 232 °C

Next compound up: COc1ccc(C2(c3cccc(-c4ccncc4)c3)N=C(N)N(C)C2=O)cc1C (stereo unspecified)
175 °C

Next compound up: "O=[N+]([O-])c1cn2c(n1)O[C@@H](COc1ccc(N3CCC(OCc4ccc(OC(F)(F)F)cc4)CC3)cc1)C2"
188 to 189 °C

Next compound up: "COc1ccc(/C=C/C(=O)CC(=O)/C=C/c2ccc(O)cc2Cl)cc1O"
120 to 130 °C

Next compound up: "CCc1cc2c(s1)SCCc1cc(=O)n(-c3ccc(OC)cc3)nc1-2"
141 to 143 °C

Next compound up: "CC(=CC(=O)Nc1ccccc1)Oc1ccccc1"
145 °C

Next compound up: "O=CNc1ccc2c(c1)nc(/C=C/c1ccccc1)n2-c1ccccn1"
190 to 192 °C
